- Test system: 60 cell line panel
- Format: cell-based
- assayConditions: 60 cell line panel
metricName: Log10TGI50 Range

- compound: "CC1CCC2C(C)C(CC(O)(CO)CC3OC4OC5(C)CCC6C(C)CCC(C3C)C46OO5)OC3OC4(C)CCC1C32OO4 (centres unmarked)"
  metricName: "Log10TGI50 Range"
  readoutNumber: 4.00
- compound: "CC(=O)O[C@H]1C(=O)[C@@]2(C)[C@H]([C@H](OC(=O)c3ccccc3)[C@]3(O)C[C@H](OC(=O)[C@H](O)[C@@H](NC(=O)c4ccccc4)c4ccccc4)C(C)=C1C3(C)C)[C@]1(OC(C)=O)CO[C@@H]1C[C@@H]2O [Paclitaxel, paclitaxel, reference compound]"
  metricName: "Log10TGI50 Range"
  readoutNumber: 7.20
- compound: "CC1CCC2C(C)C(CC(CO)CC3OC4OC5(C)CCC6C(C)CCC(C3C)C46OO5)OC3OC4(C)CCC1C32OO4 (centres unmarked)"
  metricName: "Log10TGI50 Range"
  readoutNumber: 3.18
- compound: "CC1CCC2C(C)C(CC(COCC(=O)O)CC3OC4OC5(C)CCC6C(C)CCC(C3C)C46OO5)OC3OC4(C)CCC1C32OO4 (centres unmarked) [Compound 12b, bis-trioxane O-acetic acid]"
  metricName: "Log10TGI50 Range"
  readoutNumber: 4.00
- compound: "C[C@@H]1CC[C@H]2[C@@H](C)C(CC(O)(CC3OC4O[C@]5(C)CC[C@H]6[C@H](C)CC[C@@H]([C@H]3C)C46OO5)c3ccc(C(=O)O)cc3)OC3O[C@]4(C)CCC1C32OO4 (some centres unmarked) [Compound 11b]"
  metricName: "Log10TGI50 Range"
  readoutNumber: 4.00

FYI, the data here is from patent US7417156B2.
